Target: human TLR9 (Homo sapiens)
Experiment: TLR9 inhibition reporter assay (HEK-Blue, SEAP)
Conditions: HEK-Blue cells overexpressing human TLR9, ligand ODN2006 200 nM, 22 hour incubation
pIC50: −log10 of the molar value.
Property Label: pIC50

Below, each entry is followed by its recorded pIC50 result.
Molecule | Property Label | Observed Result
COc1ccc(-c2nc3c(C)cc(C4CCN([C@H]5C[C@@H]6CN(CC7CC7)C[C@@H]6C5)CC4)nc3n2C)cc1OC [Example 38] | pIC50 | 7.10
CS(=O)(=O)c1ccc(-c2nc3ccc(-c4ccc(N5CCN(CCCN6CCOCC6)CC5)cc4)nc3n2C2CC2)cc1 [Example 56] | pIC50 | 6.55
Cc1cc(-c2ccc(N3CCN(CC(C)C)CC3)cc2)nc2c1nc(-c1ccc(S(C)(=O)=O)cc1)n2C [Example 8] | pIC50 | 5.77

1. Cc1cc(C2CCN(C3CC4CCC(C3)N4C3CCC3)CC2)nc2c1nc(-c1ccc(S(C)(=O)=O)cc1)n2C (stereo not drawn) [Example 32]
2. COc1ccc(-c2nc3ccc(-c4ccc(N5CCN(C(C)C)CC5)cc4)nc3n2C2CC2)cc1OC [Example 55]
3. Cc1cc(C2CCN(C3CCN(C4CCC4)CC3)CC2)nc2c1nc(-c1ccc(S(C)(=O)=O)cc1)n2C [Example 24]
Exam item: list the entries in increasing order of pIC50. Response format: the labels, sorted as the prompt asks.
2, 3, 1
(2: 5.85, 3: 6.62, 1: 7.38)

====

Molecular target: human TLR9 (Homo sapiens, UniProt Q9NR96)
Sequence (Q9NR96 26-1032): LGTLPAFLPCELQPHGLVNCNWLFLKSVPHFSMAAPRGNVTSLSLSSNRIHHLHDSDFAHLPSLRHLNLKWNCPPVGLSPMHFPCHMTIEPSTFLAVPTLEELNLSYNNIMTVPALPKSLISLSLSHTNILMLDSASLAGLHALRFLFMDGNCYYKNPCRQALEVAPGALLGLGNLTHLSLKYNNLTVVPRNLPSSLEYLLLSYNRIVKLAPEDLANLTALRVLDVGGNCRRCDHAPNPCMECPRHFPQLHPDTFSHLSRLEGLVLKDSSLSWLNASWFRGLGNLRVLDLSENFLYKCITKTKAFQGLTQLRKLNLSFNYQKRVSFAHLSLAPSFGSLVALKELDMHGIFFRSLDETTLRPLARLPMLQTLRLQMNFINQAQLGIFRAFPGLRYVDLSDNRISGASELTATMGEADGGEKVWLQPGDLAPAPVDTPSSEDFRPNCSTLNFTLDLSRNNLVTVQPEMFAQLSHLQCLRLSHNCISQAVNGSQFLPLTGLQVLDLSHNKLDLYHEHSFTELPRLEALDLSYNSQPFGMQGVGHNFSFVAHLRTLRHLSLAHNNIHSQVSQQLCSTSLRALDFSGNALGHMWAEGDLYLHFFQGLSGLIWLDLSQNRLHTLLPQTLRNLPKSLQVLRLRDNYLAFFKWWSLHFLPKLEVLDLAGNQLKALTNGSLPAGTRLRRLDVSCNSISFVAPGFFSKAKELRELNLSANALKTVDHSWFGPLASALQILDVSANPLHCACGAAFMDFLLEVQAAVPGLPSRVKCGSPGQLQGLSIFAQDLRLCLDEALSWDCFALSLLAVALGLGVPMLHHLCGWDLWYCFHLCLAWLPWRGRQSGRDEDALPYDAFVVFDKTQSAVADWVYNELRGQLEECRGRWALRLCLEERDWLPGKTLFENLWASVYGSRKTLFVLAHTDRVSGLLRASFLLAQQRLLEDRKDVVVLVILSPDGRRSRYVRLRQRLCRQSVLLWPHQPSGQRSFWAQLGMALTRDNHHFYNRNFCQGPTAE
Assay: TLR9 inhibition reporter assay (HEK-Blue, SEAP)
Settings: HEK-Blue cells overexpressing human TLR9, ligand ODN2006 200 nM, 22 hour incubation
pIC50: −log10 of the molar value.
Property Label: pIC50

Compound | Property Label | Observed Result
Cc1cc(C2CCN(C3CC4CCC(C3)N4C(C)C)CC2)nc2c1nc(-c1ccc(S(C)(=O)=O)cc1)n2C (single isomer, unassigned) [Example 27] | pIC50 | 6.52
Cc1cc(-c2ccc(N3CCN(C(C)C)CC3)cc2)nc2c1nc(-c1ccc(S(C)(=O)=O)cc1)n2C | pIC50 | 5.92
CC(C)CN1CC2(C1)CN(c1ccc(-c3ccc4nc(-c5ccc(S(C)(=O)=O)cc5)n(C)c4n3)cc1)C2 | pIC50 | 6.24
COCCN1C[C@H]2C[C@H](N3CCC(c4cc(C)c5nc(-c6ccc(OC)c(OC)c6)n(C)c5n4)CC3)C[C@H]2C1 | pIC50 | 7.14
Cn1c(-c2ccc(S(C)(=O)=O)cc2)nc2ccc(C3CCN(C4CCN(C5CC5)CC4)CC3)nc21 | pIC50 | 6.06
COc1cc(-c2nc3c(C)cc(C4CCN([C@H]5C[C@@H]6CN(C7CCC7)C[C@@H]6C5)CC4)nc3n2C)cn2ncnc12 | pIC50 | 7.08
Cc1cc(C2CCN(C3CC4CCC(C3)N4CC3CC3)CC2)nc2c1nc(-c1ccc(S(C)(=O)=O)cc1)n2C (single isomer, unassigned) [Example 30] | pIC50 | 7.22

a. Cc1cc(C2CCN(C3CC4CCC(C3)N4C(C)C)CC2)nc2c1nc(-c1ccc(S(C)(=O)=O)cc1)n2C (single isomer, unassigned) [Example 26]
b. CC(C)CN1CCC(N2CCC(c3ccc4nc(-c5ccc(S(C)(=O)=O)cc5)n(C)c4n3)CC2)CC1
c. COc1ccc(-c2nc3c(C)cc(C4CCN([C@H]5C[C@@H]6CN(C(C)C)C[C@@H]6C5)CC4)nc3n2C)cc1OC
d. Cc1cc(C2CCN(C3CCN(CC(C)(C)O)CC3)CC2)nc2c1nc(-c1ccc(S(C)(=O)=O)cc1)n2C
Order the records by pIC50, with each subsequent value no larger than the one before. Response format: the labels, sorted as the prompt asks.
d, a, c, b
(d: 7.59, a: 7.24, c: 6.85, b: 6.11)

====

Biological target: UniProt Q9NYK1
Sequence (Q9NYK1 27-1049): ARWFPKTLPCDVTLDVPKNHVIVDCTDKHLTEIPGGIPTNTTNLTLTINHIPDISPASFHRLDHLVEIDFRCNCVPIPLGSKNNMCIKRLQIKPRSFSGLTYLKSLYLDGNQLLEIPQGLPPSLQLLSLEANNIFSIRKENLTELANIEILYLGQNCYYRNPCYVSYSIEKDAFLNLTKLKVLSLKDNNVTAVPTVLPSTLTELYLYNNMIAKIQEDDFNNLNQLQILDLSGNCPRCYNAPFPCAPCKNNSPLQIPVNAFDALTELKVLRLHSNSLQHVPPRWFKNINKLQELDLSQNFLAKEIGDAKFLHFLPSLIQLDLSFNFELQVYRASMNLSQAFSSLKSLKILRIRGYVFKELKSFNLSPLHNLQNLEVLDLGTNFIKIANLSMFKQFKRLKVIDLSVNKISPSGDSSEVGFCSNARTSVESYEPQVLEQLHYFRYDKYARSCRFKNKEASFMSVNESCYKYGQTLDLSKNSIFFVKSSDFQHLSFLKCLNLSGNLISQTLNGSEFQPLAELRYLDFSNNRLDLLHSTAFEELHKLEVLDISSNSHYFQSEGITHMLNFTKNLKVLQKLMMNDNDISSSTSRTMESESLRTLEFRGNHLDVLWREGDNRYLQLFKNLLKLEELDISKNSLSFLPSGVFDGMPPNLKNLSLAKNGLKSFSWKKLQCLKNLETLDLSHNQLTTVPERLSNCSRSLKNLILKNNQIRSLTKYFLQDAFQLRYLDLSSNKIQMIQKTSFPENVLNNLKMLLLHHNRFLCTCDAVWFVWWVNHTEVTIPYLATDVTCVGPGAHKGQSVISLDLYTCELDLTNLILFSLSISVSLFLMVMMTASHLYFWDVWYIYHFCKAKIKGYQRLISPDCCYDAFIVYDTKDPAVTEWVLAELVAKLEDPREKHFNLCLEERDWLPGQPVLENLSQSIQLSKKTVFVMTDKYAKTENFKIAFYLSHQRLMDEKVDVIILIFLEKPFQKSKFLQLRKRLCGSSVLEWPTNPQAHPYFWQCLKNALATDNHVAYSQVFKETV
Test: TLR7 inhibition reporter assay (HEK-Blue, SEAP)
Conditions: HEK-Blue cells overexpressing human TLR7, ligand gardiquimod 2.5 μM, 22 hour incubation
Property Label: IC50

Smiles Notation | IC50
CC(C)N1CC2(CN(c3ccc(-c4ccc5nc(-c6ccc(S(C)(=O)=O)cc6)n(C)c5n4)cc3)C2)C1 | > 50 µM
CS(=O)(=O)c1ccc(-c2nc3ccc(-c4ccc(N5CCN(CCN6CCOCC6)CC5)cc4)nc3n2C2CC2)cc1 | > 50 µM

Note: attention shifts to another entry.
Could you please provide reported IC50 for `CC(C)N1CCN(c2ccc(-c3ccc4nc(-c5ccc(S(C)(=O)=O)cc5)n(C)c4n3)cc2)CC1` ? Thanks!
> 50 µM
